Biological target: Potassium voltage-gated channel subfamily KQT member 2 (Rattus norvegicus)
Assay: rat KCNQ2 channel inhibitors, SAR follow-up, orthogonal assay, automated electrophysiology, CHO cells (AID 602271)
Conditions: automated patch clamp current
measured-endpoint: IC50

Solved entries:
cpd-smiles	test-system	IC50
CN(C)c1ccccc1NC(=O)Cc1cccc(Cl)c1	Potassium voltage-gated channel subfamily KQT member 2 (Rattus norvegicus)	27.5 µM
O=C(Cc1cccc(Cl)c1)Nc1ccc(N2CCCC2)cc1	Potassium voltage-gated channel subfamily KQT member 2 (Rattus norvegicus)	8.66 µM
O=C(Cc1cccc(Cl)c1)Nc1ccc(Cl)cc1Cl	Potassium voltage-gated channel subfamily KQT member 2 (Rattus norvegicus)	1.52 µM

Task item: Which value of IC50 has been reported for "O=C(Cc1cccc(Cl)c1)Nc1cccc(N2CCCC2)c1" in the records?
Reply: 1.02 µM

Task item: Cool, now "COc1ccc(NC(=O)Cc2cccc(Cl)c2)c(OC)c1"
Reply: 1.24 µM

Task item: Try "O=C(Cc1cccc(Cl)c1)Nc1ccccc1N1CCCCC1" next.
Reply: 7.09 µM

Task item: Lookup "O=C(Cc1cccc(Cl)c1)Nc1ccccc1-n1cccc1"
Reply: 12.3 µM
